TESTED_SYSTEM: purified human, His-tagged PRC2 complex (Homo sapiens (Human))
ASSAY_OVERVIEW: Hot Spot HMT assay, inhibition of PRC2 enzymatic activity
CONDITION: 10 nM PRC2 complex, 1 μM 3H-SAM, core histone H3, 10-point dose-response
From the text: The assay uses purified human, His-tagged PRC2 complex, including N-terminal His-tagged EZH2 enzyme, N-terminal Flag-tagged embryonic ectoderm development protein (EED), N-terminal His-tagged suppressor of zeste 12 (SUZ12), N-terminal His-tagged AEBP2, and N-terminal His-tagged RbAp48. […]
Task for the reader: assign each of the following compounds its reported IC50.

// field: IC50; key: CN(C)CCCn1cc(-c2cnc(NCc3c(F)ccc4c3CCO4)n3cc(C#N)nc23)cn1 ; value = 100 to 500 nM

IC50 recorded for this compound, COc1ncc(-c2cnc(NCc3c(F)ccc4c3CCO4)n3cc(C#N)nc23)c(C)n1 , is < 100 nM

What the record says about COCCOc1ccc(-c2cnc(NCc3c(F)ccc4c3CCO4)n3cc(C#N)nc23)cc1 : IC50 is < 100 nM

Lab note: Cc1c(-c2cnc(NCc3c(F)ccc4c3CCO4)n3cc(C#N)nc23)ccc(CN(C)C)c1F gave IC50 of < 100 nM

Consider COc1cc(Cl)c(-c2cnc(NCc3c(F)ccc4c3CCO4)n3cc(C#N)nc23)cn1 . Its measured IC50 is 100 to 500 nM

Reported IC50 ( CN(C)C1(c2ccc(-c3cnc(NCc4c(F)ccc5c4CCO5)n4cc(C#N)nc34)cc2)CC1 ) = < 100 nM

IC50 for Cc1cc(CN(C)C)ccc1-c1cnc(NCc2c(F)ccc3c2C(O)CO3)n2cc(C#N)nc12 (stereo not drawn) is < 100 nM

IC50 reading for COCCOc1ccc(-c2cnc(NCc3c(F)ccc4c3CCO4)n3cc(C#N)nc23)cn1 : 100 to 500 nM

The recorded IC50 for Cc1nn(C)cc1-c1cnc(NCc2c(F)ccc3c2CCO3)n2cc(C#N)nc12 is < 100 nM

###

TESTED_SYSTEM: purified human, His-tagged PRC2 complex (Homo sapiens (Human), UniProt O75530)
Sequence (O75530 whole entry): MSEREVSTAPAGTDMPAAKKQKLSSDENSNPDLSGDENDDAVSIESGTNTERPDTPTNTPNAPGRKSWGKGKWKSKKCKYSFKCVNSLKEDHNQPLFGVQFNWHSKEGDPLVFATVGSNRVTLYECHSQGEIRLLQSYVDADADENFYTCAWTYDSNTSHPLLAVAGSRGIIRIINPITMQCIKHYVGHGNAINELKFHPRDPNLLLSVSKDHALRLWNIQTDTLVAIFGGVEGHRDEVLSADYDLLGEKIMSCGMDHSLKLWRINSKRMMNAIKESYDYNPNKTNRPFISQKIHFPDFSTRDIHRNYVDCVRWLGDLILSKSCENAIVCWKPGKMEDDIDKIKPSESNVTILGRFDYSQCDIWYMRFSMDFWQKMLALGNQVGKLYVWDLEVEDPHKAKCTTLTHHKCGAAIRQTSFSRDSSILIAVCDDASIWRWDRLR
Sequence (Q15910 whole entry partner): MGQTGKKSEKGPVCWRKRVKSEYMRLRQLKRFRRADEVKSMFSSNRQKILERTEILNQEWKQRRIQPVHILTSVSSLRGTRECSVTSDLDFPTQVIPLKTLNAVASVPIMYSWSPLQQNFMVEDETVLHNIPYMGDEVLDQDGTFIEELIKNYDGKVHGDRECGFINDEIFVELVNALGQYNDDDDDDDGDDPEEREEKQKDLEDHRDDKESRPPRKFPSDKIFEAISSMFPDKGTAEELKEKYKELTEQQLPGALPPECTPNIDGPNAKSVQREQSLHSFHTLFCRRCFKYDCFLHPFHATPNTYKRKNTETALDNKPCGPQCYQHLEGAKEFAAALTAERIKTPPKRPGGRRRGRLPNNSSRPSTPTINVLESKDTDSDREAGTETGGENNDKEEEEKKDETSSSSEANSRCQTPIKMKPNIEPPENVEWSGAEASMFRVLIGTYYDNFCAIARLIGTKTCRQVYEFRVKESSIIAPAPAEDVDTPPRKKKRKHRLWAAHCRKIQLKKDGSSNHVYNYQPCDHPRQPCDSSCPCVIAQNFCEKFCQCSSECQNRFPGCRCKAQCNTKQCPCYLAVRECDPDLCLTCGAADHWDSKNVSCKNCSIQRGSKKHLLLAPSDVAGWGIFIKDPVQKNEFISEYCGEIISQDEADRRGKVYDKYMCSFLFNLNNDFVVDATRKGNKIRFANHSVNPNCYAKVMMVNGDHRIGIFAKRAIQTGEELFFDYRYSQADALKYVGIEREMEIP
Sequence (Q15022 whole entry partner): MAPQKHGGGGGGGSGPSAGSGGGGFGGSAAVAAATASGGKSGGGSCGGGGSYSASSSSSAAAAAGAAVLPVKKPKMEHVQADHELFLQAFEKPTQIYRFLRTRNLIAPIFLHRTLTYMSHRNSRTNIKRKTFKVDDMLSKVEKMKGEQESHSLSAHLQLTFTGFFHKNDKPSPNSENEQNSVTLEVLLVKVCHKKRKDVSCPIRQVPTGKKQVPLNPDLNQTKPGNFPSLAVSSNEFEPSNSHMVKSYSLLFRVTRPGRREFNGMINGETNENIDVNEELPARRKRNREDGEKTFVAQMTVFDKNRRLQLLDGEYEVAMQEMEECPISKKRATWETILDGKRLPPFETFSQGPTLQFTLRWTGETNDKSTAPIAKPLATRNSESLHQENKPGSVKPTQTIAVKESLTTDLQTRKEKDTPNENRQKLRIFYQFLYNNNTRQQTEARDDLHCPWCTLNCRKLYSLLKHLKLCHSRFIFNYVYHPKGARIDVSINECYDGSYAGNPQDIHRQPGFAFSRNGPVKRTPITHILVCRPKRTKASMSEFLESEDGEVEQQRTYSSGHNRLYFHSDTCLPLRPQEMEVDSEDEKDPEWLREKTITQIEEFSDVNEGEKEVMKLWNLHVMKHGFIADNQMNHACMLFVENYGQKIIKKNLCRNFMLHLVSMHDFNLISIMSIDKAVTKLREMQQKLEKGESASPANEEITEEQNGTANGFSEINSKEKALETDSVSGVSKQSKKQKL
Sequence (Q6ZN18 whole entry partner): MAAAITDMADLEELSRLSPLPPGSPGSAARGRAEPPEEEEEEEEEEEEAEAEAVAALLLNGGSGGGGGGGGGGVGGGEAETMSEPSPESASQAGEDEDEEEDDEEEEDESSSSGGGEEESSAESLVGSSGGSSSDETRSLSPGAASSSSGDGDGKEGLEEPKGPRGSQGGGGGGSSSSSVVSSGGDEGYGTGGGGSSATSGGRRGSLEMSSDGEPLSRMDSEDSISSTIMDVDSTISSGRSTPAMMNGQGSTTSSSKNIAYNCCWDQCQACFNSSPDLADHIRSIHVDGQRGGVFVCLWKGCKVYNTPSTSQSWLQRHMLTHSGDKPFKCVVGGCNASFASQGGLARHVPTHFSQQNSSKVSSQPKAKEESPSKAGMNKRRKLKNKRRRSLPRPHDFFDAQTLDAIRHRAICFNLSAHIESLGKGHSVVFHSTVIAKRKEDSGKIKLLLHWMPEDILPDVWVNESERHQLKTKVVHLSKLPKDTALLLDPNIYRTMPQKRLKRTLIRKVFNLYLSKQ
Sequence (Q09028 whole entry partner): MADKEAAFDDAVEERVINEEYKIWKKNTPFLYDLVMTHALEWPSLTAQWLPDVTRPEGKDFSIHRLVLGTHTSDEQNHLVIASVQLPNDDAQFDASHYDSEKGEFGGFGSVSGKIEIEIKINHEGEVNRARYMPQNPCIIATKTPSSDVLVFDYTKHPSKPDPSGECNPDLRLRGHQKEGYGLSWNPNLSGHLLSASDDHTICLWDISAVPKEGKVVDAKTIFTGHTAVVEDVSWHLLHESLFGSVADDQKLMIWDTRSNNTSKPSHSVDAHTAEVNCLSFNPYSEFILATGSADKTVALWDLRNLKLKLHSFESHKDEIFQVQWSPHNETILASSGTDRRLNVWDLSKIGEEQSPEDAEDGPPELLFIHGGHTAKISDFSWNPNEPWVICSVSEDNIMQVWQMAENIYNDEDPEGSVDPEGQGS
ASSAY_OVERVIEW: Hot Spot HMT assay, inhibition of PRC2 enzymatic activity
CONDITION: 10 nM PRC2 complex, 1 μM 3H-SAM, core histone H3, 10-point dose-response
MEASUREMENT_KIND: IC50

Query CN(C)C(=O)c1ccc(-c2cnc(NCc3c(F)ccc4c3CCO4)n3cc(C#N)nc23)cc1 on purified human, His-tagged PRC2 complex (Homo sapiens (Human), UniProt O75530); IC50 returned: < 100 nM

The reported IC50 value, purified human, His-tagged PRC2 complex (Homo sapiens (Human), UniProt O75530), for COc1cc(C)c(-c2cnc(NCc3c(F)ccc4c3CCO4)n3cc(C(=O)O)nc23)cn1 reads 100 to 500 nM

IC50 of CC(c1ccc(-c2cnc(NCc3c(F)ccc4c3CCO4)n3cc(C#N)nc23)cc1)N(C)C (centres unmarked) , assay on purified human, His-tagged PRC2 complex (Homo sapiens (Human), UniProt O75530), is < 100 nM

Log: purified human, His-tagged PRC2 complex (Homo sapiens (Human), UniProt O75530), molecule N#Cc1cn2c(NCc3c(F)ccc4c3CCO4)ncc(-c3ccc(CN4CC5CC5C4)cc3)c2n1 (centres unmarked) , IC50 = < 100 nM

Entry Cc1cc(-c2cnc(NCc3c(F)ccc4occc34)n3cc(C(=O)O)nc23)n(C)n1 , tested on purified human, His-tagged PRC2 complex (Homo sapiens (Human), UniProt O75530), has a reported IC50 of < 100 nM

Short answer on purified human, His-tagged PRC2 complex (Homo sapiens (Human), UniProt O75530) for N#Cc1cn2c(NCc3c(F)ccc4c3CCO4)ncc(-c3ccc(C(=O)O)nc3)c2n1 , IC50: < 100 nM

The observed IC50 for Cc1nn(C[C@@H](C)O)c(C)c1-c1cnc(NCc2c(F)ccc3c2CCO3)n2cc(C#N)nc12 when tested with purified human, His-tagged PRC2 complex (Homo sapiens (Human), UniProt O75530) stands at 100 to 500 nM

Bench note, purified human, His-tagged PRC2 complex (Homo sapiens (Human), UniProt O75530): entry N#Cc1cn2c(NCc3c(F)ccc4c3CCO4)ncc(-c3cnn(Cc4cccnc4)c3)c2n1 , its IC50 = 100 to 500 nM

Per the reported purified human, His-tagged PRC2 complex (Homo sapiens (Human), UniProt O75530) data, N#Cc1cn2c(NCc3c(F)ccc4c3CCO4)ncc(-c3ccc(C4COCCN4)cc3)c2n1 (centres unmarked) has IC50 of < 100 nM

Per the reported purified human, His-tagged PRC2 complex (Homo sapiens (Human), UniProt O75530) data, Cc1cn(-c2cnc(NCc3c(F)ccc4c3CCO4)n3cc(C(=O)O)nc23)cn1 has IC50 of < 100 nM

Short answer on purified human, His-tagged PRC2 complex (Homo sapiens (Human), UniProt O75530) for CN1CCCC1c1ccc(-c2cnc(NCc3c(F)ccc4c3CCO4)n3cc(C#N)nc23)cc1 (centres unmarked) , IC50: < 100 nM

Reading of IC50 for CCOc1ncccc1-c1cnc(NCc2c(F)ccc3c2CCO3)n2cc(C#N)nc12 with purified human, His-tagged PRC2 complex (Homo sapiens (Human), UniProt O75530): < 100 nM

So the reported IC50 for CN(C)Cc1ccc(-c2cnc(NCc3c(F)ccc4c3CCO4)n3cc(C#N)nc23)c(Cl)c1 , on purified human, His-tagged PRC2 complex (Homo sapiens (Human), UniProt O75530), turned out to be < 100 nM

Sample Cc1c(-c2cnc(NCc3c(F)ccc4c3CCO4)n3cc(C(N)=O)nc23)cnn1C(C)C , system: purified human, His-tagged PRC2 complex (Homo sapiens (Human), UniProt O75530). Its IC50 is < 100 nM

Value (IC50, purified human, His-tagged PRC2 complex (Homo sapiens (Human), UniProt O75530)) for record Cc1ncccc1-c1cnc(NCc2c(F)ccc3c2CCO3)n2cc(C#N)nc12 = < 100 nM

Reading of IC50 for N#Cc1cn2c(NCc3c(F)ccc4c3CCO4)ncc(-c3cnn(C4CCCCO4)c3)c2n1 (centres unmarked) with purified human, His-tagged PRC2 complex (Homo sapiens (Human), UniProt O75530): < 100 nM

Recorded IC50 for N#Cc1cn2c(NCc3c(F)ccc4c3CCO4)ncc(-c3ccc(C(=O)N4CCOCC4)cc3)c2n1 on purified human, His-tagged PRC2 complex (Homo sapiens (Human), UniProt O75530) was < 100 nM
